# system tested: T1, biotinylated hBLyS-ECD (human, UniProt Q9Y275 134-285, biotinylated with Biotin-X-X-NHS (molar ratio 7:1); sites not stated)
# T1 construct: also called biotinylated immunogen; biotinylated hBLvS-ECD
# T1 sequence (Q9Y275 134-285): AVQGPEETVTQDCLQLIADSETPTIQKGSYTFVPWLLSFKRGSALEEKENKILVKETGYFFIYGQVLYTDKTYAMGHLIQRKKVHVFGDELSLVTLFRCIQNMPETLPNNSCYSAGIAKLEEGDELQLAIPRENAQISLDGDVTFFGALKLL
# measurement description: BAFF R-coated ELISA, biotinylated hBLyS-ECD bound in presence of antibody 0.16 nM
Exercise: for every item that follows, state its recorded OD450 nm.

Input: Name the reported OD450 nm value associated with the binder c8E7D9C7F5 (antibody, V domains shown, also called chimeric antibody c8E7D9C7F5) VH: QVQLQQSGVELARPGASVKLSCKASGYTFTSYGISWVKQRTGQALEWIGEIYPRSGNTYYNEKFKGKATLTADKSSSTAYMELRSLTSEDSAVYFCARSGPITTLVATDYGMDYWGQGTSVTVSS VL: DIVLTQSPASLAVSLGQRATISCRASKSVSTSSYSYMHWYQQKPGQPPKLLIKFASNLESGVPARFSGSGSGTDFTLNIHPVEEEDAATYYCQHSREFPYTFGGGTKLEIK
Output: 1.85 OD450 nm

Input: If you can, please state the reported OD450 nm value of c97A3C2H4 (antibody, V domains shown, also called chimeric antibody c97A3C2H4) VH: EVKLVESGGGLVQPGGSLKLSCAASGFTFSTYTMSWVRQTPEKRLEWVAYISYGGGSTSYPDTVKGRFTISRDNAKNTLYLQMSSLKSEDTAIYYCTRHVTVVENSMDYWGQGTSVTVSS VL: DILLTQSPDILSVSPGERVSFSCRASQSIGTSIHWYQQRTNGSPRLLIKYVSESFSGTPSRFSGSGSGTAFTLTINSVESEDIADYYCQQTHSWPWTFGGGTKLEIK .
Output: 1.79 OD450 nm

Input: Param item = h97A3C2H4-9 (antibody, V domains shown, Humanized antibody; VH3-7/JH6 CDR-grafted with A93T, G44R; also called humanized BLyS antibody h97A3C2H4 variant 9 (VH.1b / Vk.1d)) VH: EVQLVESGGGLVQPGGSLRLSCAASGFTFSTYTMSWVRQAPGKRLEWVAYISYGGGSTSYPDTVKGRFTISRDNAKNSLYLQMNSLRAEDTAVYYCTRHVTVVENSMDYWGQGTTVTVSS VL: DILLTQSPDFQSVTPKEKVTITCRASQSIGTSIHWYQQKTDQSPKLLIKYVSESFSGTPSRFSGSGSGTDFTLTINSLEAEDAATYYCQQTHSWPWTFGGGTKVEIK ; retrieve measured OD450 nm.
Output: 1.81 OD450 nm

Input: Please look up its OD450 nm: h8E7D9C7F5-1 (antibody, V domains shown, Humanized antibody; also called humanized BLyS antibody h8E7D9C7F5 variant 1 (VH.1 / Vk.1)) VH: EVQLVQSGAEVKKPGASVKVSCKASGYTFTSYGISWVRQAPGQGLEWMGEIYPRSGNTYYNEKFKGRVTMTTDTSTSTAYMELRSLRSDDTAVYYCARSGPITTLVATDYGMDYWGQGTTVTVSS VL: DIVMTQSPDSLAVSLGERATINCRASKSVSTSSYSYMHWYQQKPGQPPKLLIKFASNLESGVPDRFSGSGSGTDFTLTISSLQAEDVAVYYCQHSREFPYTFGGGTKVEIK
Output: 1.78 OD450 nm
